Streptococcus pneumoniae, R6 MIC data
*1 amine or outer side, *2 acyl side, *3 side chain or, on linkers, in order; H or OH if unused. Where a SMILES comes first, the peptide text is derived from it. Bridges are numbered along the chain shown (N, C = ends). [ ]: non-standard residue; d: D form. The star is where a group is joined. ξ: configuration not given here. Phe(3,5-F2) = N[C@@H](Cc1cc(F)cc(F)c1)C(=O)O; Pro(4S-Me) = C[C@@H]1CN[C@H](C(=O)O)C1; ξPro(4S-Me) = C[C@@H]1CNC(C(=O)O)C1; NMeaThr = CN[C@H](C(=O)O)[C@H](C)O; NH(4-Et-phenyl) = CCc1ccc(N*)cc1; NMeT = CN[C@H](C(=O)O)[C@@H](C)O; NH(4-Me-phenyl) = Cc1ccc(N*)cc1; aThr = C[C@H](O)[C@H](N)C(=O)O; NMeA = CN[C@@H](C)C(=O)O; CO = O=C([*:1])[*:2]; ξP = O=C(O)C1CCCN1
Result type: MIC (µM)

>>> test_value("Cc1ccc(NC(=O)N[C@@H](Cc2cc(F)cc(F)c2)C(=O)N[C@@H]2C(=O)N3CCC[C@H]3C(=O)N(C)[C@@H]([C@@H](C)O)C(=O)N[C@@H](C)C(=O)N3C[C@@H](C)C[C@H]3C(=O)O[C@H]2C)cc1 [Compound 35] ({NH(4-Me-phenyl)-CO}-[Phe(3,5-F2)][aThr]P[NMeT]A[Pro(4S-Me)]; ester 2-C)")
0.049
>>> test_value("Cc1ccc(NC(=O)N[C@@H](Cc2cc(F)cc(F)c2)C(=O)N[C@@H]2C(=O)N3CCCC3C(=O)N(C)[C@@H](C)C(=O)N[C@@H](C)C(=O)N3C[C@@H](C)CC3C(=O)O[C@H]2C)cc1 (stereo partly drawn) [Compound 26] ({NH(4-Me-phenyl)-CO}-[Phe(3,5-F2)][aThr][ξP][NMeA]A[ξPro(4S-Me)]; ester 2-C)")
0.125
>>> test_value("CCc1ccc(NC(=O)N[C@@H](Cc2cc(F)cc(F)c2)C(=O)N[C@@H]2C(=O)N3CCC[C@H]3C(=O)N(C)[C@@H]([C@H](C)O)C(=O)N[C@@H](C)C(=O)N3C[C@@H](C)C[C@H]3C(=O)O[C@H]2C)cc1 [Compound 204] ({NH(4-Et-phenyl)-CO}-[Phe(3,5-F2)][aThr]P[NMeaThr]A[Pro(4S-Me)]; ester 2-C)")
0.024

----------
- Tested on: Streptococcus pyogenes, ATCC 700294
- Assay details: Minimal inhibitory concentration assay (microbroth dilution)
- Type: cell-based
- Protocol conditions: Streptococcus pyogenes, ATCC700294; read-out: Minimal Inhibitory Concentrations S. pyogenes ATCC 700294
*1 amine or outer side, *2 acyl side, *3 side chain or, on linkers, in order; H or OH if unused. Where a SMILES comes first, the peptide text is derived from it. Bridges are numbered along the chain shown (N, C = ends). [ ]: non-standard residue; d: D form. The star is where a group is joined. Phe(3,5-F2) = N[C@@H](Cc1cc(F)cc(F)c1)C(=O)O; NH(4-OCF3-phenyl) = FC(F)(F)Oc1ccc(N*)cc1; Morpholine(3S-CO) = O=C(O)[C@@H]1COCCN1; Pro(4S-Me) = C[C@@H]1CN[C@H](C(=O)O)C1; NMeaThr = CN[C@H](C(=O)O)[C@H](C)O; NH(4-Et-phenyl) = CCc1ccc(N*)cc1; aThr = C[C@H](O)[C@H](N)C(=O)O; CO = O=C([*:1])[*:2]
In this section we review reported MIC values for a set of compounds.
Result type: MIC (µM)

>>> test_value("COc1cccc(NC(=O)N[C@@H](Cc2ccccc2)C(=O)N[C@H]2COC(=O)[C@@H]3C[C@@H](C)CN3C(=O)[C@H](C)NC(=O)[C@@H]3CCCCN3C(=O)[C@@H]3CCCN3C2=O)c1 [Compound 8]")
0.78
>>> test_value("CCc1ccc(NC(=O)N[C@@H](Cc2cc(F)cc(F)c2)C(=O)N[C@@H]2C(=O)N3CCC[C@H]3C(=O)N(C)[C@@H]([C@H](C)O)C(=O)N[C@@H](C)C(=O)N3C[C@@H](C)C[C@H]3C(=O)O[C@H]2C)cc1 [Compound 204] ({NH(4-Et-phenyl)-CO}-[Phe(3,5-F2)][aThr]P[NMeaThr]A[Pro(4S-Me)]; ester 2-C)")
0.098
>>> test_value("C[C@H]1C[C@H]2C(=O)O[C@@H](C)[C@H](NC(=O)[C@H](Cc3cc(F)cc(F)c3)NC(=O)Nc3ccc(OC(F)(F)F)cc3)C(=O)N3CCC[C@H]3C(=O)N3CCOC[C@H]3C(=O)N[C@@H](C)C(=O)N2C1 [Compound 201] ({NH(4-OCF3-phenyl)-CO}-[Phe(3,5-F2)][aThr]P[Morpholine(3S-CO)]A[Pro(4S-Me)]; ester 2-C)")
0.098

----------
Each item that follows carries a reported MIC.
- Test system: Staphylococcus aureus, USA 300
*1 amine or outer side, *2 acyl side, *3 side chain or, on linkers, in order; H or OH if unused. Where a SMILES comes first, the peptide text is derived from it. Bridges are numbered along the chain shown (N, C = ends). [ ]: non-standard residue; d: D form. The star is where a group is joined. ξ: configuration not given here. NH(1,3-benzodioxol-5-yl) = c1cc2c(cc1N*)OCO2; Phe(3,5-F2) = N[C@@H](Cc1cc(F)cc(F)c1)C(=O)O; Morpholine(3S-CO) = O=C(O)[C@@H]1COCCN1; Pro(4R-Me) = C[C@H]1CN[C@H](C(=O)O)C1; ξPro(4R-Me) = C[C@H]1CNC(C(=O)O)C1; Hyp = O=C(O)[C@@H]1C[C@@H](O)CN1; NH(4-Et-phenyl) = CCc1ccc(N*)cc1; NH(4-Me-phenyl) = Cc1ccc(N*)cc1; aThr = C[C@H](O)[C@H](N)C(=O)O; X5 = O=C(C1COCCN1[*:1])[*:2]; Pip = O=C(O)[C@@H]1CCCCN1; CO = O=C([*:1])[*:2]; ξP = O=C(O)C1CCCN1
Result type: MIC

>>> test_value("CCc1ccc(NC(=O)N[C@@H](Cc2cc(F)cc(F)c2)C(=O)N[C@@H]2C(=O)N3C[C@H](O)C[C@H]3C(=O)N3CCCC[C@H]3C(=O)N[C@@H](C)C(=O)N3C[C@H](C)C[C@H]3C(=O)O[C@H]2C)cc1 [Compound 211] ({NH(4-Et-phenyl)-CO}-[Phe(3,5-F2)][aThr][Hyp][Pip]A[Pro(4R-Me)]; ester 2-C)")
"0.04 µM"
>>> test_value("Cc1ccc(NC(=O)N[C@@H](Cc2cc(F)cc(F)c2)C(=O)N[C@@H]2C(=O)N3CCCC3C(=O)N3CCOCC3C(=O)N[C@@H](C)C(=O)N3C[C@H](C)CC3C(=O)O[C@H]2C)cc1 (stereo partly drawn) [Compound 47] ({NH(4-Me-phenyl)-CO}-[Phe(3,5-F2)][aThr][ξP][X5]A[ξPro(4R-Me)]; ester 2-C)")
"0.01 µM"
>>> test_value("C[C@@H]1C[C@H]2C(=O)O[C@@H](C)[C@H](NC(=O)[C@H](Cc3cc(F)cc(F)c3)NC(=O)Nc3ccc4c(c3)OCO4)C(=O)N3CCC[C@H]3C(=O)N3CCOC[C@H]3C(=O)N[C@@H](C)C(=O)N2C1 [Compound 199] ({NH(1,3-benzodioxol-5-yl)-CO}-[Phe(3,5-F2)][aThr]P[Morpholine(3S-CO)]A[Pro(4R-Me)]; ester 2-C)")
"0.078 µM"

----------
Recorded MIC values (Streptococcus pneumoniae, R6) are given below.
*1 amine or outer side, *2 acyl side, *3 side chain or, on linkers, in order; H or OH if unused. Where a SMILES comes first, the peptide text is derived from it. Bridges are numbered along the chain shown (N, C = ends). [ ]: non-standard residue; d: D form. The star is where a group is joined. ξ: configuration not given here. Piperazine(2S-CO,4-Me) = CN1CCN[C@H](C(=O)O)C1; Phe(3,5-F2) = N[C@@H](Cc1cc(F)cc(F)c1)C(=O)O; NH(4-OCF3-phenyl) = FC(F)(F)Oc1ccc(N*)cc1; Morpholine(3S-CO) = O=C(O)[C@@H]1COCCN1; NH(4-Cl-2-F-phenyl) = Fc1cc(Cl)ccc1N*; Pro(4R-Me) = C[C@H]1CN[C@H](C(=O)O)C1; aThr = C[C@H](O)[C@H](N)C(=O)O; NMeA = CN[C@@H](C)C(=O)O; CO = O=C([*:1])[*:2]; ξP = O=C(O)C1CCCN1
Result type: MIC

>>> test_value("C[C@@H]1C[C@H]2C(=O)OC[C@H](NC(=O)[C@H](Cc3cc(F)cc(F)c3)NC(=O)Nc3ccc(Cl)cc3F)C(=O)N3CCC[C@H]3C(=O)N3CCN(C)C[C@H]3C(=O)N[C@@H](C)C(=O)N2C1 [Compound 330] ({NH(4-Cl-2-F-phenyl)-CO}-[Phe(3,5-F2)]SP[Piperazine(2S-CO,4-Me)]A[Pro(4R-Me)]; ester 2-C)")
"0.039 µM"
>>> test_value("C[C@@H]1C[C@H]2C(=O)O[C@@H](C)[C@H](NC(=O)[C@H](Cc3cc(F)cc(F)c3)NC(=O)Nc3ccc(Cl)cc3F)C(=O)N3CCC[C@H]3C(=O)N3CCOC[C@H]3C(=O)N[C@@H](C)C(=O)N2C1 [Compound 314] ({NH(4-Cl-2-F-phenyl)-CO}-[Phe(3,5-F2)][aThr]P[Morpholine(3S-CO)]A[Pro(4R-Me)]; ester 2-C)")
"< 0.02 µM"
>>> test_value("C[C@@H]1NC(=O)[C@H](C)N(C)C(=O)[C@@H]2CCCN2C(=O)[C@@H](NC(=O)[C@H](Cc2ccccc2)NC(=O)Nc2ccc(OC(F)(F)F)cc2)COC(=O)C2CCCN2C1=O (stereo partly drawn) [Compound 213] ({NH(4-OCF3-phenyl)-CO}-FSP[NMeA]A[ξP]; ester 2-C)")
"< 0.2 µM"
